Reference source: patent US20160368898A1

Consider the following molecules; for each one, report its IC50.
- tested system: human orexin-2 receptor (hOX2R) (Homo sapiens, UniProt O43614)
- Sequence (O43614 1-444): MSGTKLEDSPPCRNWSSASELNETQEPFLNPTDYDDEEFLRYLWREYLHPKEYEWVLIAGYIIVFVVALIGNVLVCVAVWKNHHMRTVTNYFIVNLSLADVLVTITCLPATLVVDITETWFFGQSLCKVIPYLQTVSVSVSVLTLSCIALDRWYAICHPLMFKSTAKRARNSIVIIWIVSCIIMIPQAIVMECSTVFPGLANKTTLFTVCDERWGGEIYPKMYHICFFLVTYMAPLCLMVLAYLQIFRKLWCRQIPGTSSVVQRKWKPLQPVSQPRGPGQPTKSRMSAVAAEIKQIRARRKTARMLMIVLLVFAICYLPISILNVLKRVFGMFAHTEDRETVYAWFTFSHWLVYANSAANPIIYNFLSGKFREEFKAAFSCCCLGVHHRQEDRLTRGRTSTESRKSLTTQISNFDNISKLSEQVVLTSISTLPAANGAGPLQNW
- assay text: FLIPR Ca2+ Flux Assay, CHO cells expressing the human orexin-2 receptor
- condition label: agonist 70 pM Ala-6,12 human orexin-A
Numbers only, in nM.

Below, each entry is followed by its recorded IC50 result.
In [3]: df
Out[3]:
                      smiles_representation                             tested_system  measurement_type  units_text  reported_value
0  Cc1ccnc(O[C@@H]2CC[C@@H](C)N(C(=O)c3c(F)cccc3-n3nccn3)C2)c1  human orexin-2 receptor (hOX2R) (Homo sapiens, UniProt O43614)              IC50          nM              28
1  Cc1ccnc(O[C@@H]2CC[C@@H](C)N(C(=O)c3cccnc3-n3cc(C)cn3)C2)c1  human orexin-2 receptor (hOX2R) (Homo sapiens, UniProt O43614)              IC50          nM              33
2  Cc1ccnc(O[C@@H]2CC[C@@H](C)N(C(=O)c3ccccc3-c3ncccn3)C2)c1  human orexin-2 receptor (hOX2R) (Homo sapiens, UniProt O43614)              IC50          nM              27
3  COCc1ccccc1C(=O)N1C[C@H](Oc2cc(C)ccn2)CC[C@H]1C  human orexin-2 receptor (hOX2R) (Homo sapiens, UniProt O43614)              IC50          nM             226
4  Cc1ccnc(O[C@@H]2CC[C@@H](C)N(C(=O)c3cccc(F)c3-n3nccn3)C2)c1  human orexin-2 receptor (hOX2R) (Homo sapiens, UniProt O43614)              IC50          nM              26
5  Cc1ccnc(O[C@@H]2CC[C@@H](C)N(C(=O)c3ccc(F)cc3-c3ncccn3)C2)c1  human orexin-2 receptor (hOX2R) (Homo sapiens, UniProt O43614)              IC50          nM              42

For each of the molecules below, state IC50.
1. Cc1ccnc(O[C@@H]2CC[C@@H](C)N(C(=O)c3ccc(F)cc3-n3nccn3)C2)c1
2. Cc1ccnc(O[C@@H]2CC[C@@H](C)N(C(=O)c3ncccc3-c3noc(C)n3)C2)c1

35
106
